METHOD_NOTES: recombinant barcode read abundance after kanamycin selection (control-corrected) (log10(CPM+1)); higher = more efficient recombination; sequences stand for … in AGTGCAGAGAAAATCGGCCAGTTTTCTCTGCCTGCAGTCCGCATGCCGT…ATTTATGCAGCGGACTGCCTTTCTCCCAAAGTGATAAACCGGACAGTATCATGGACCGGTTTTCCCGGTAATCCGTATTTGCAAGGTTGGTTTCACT; site = the 11-nt target
// recombinant barcode read abundance (log10) lookup, one value per entry
Write no unit; give the number alone.

>>> meas_value("ACGGGACACTGGGTTCTAACCTGTTGCAGAG [ACGGGACCTCT_LTGcore_AC_RTGcore_CT] (site ACGGGACCTCT) (LTG core: AC, RTG core: CT)")
0.0883
>>> meas_value("AGGCGGGTTTGGGTTCTAACCTGTTGCGGAG [AGGCGGGCTCC_LTGcore_TT_RTGcore_CT] (site AGGCGGGCTCC) (LTG core: TT, RTG core: CT)")
0.475
>>> meas_value("CATATTACTTGGGTTCTAACCTGTTGCCTAG [CATATTACTAG_LTGcore_CT_RTGcore_CT] (site CATATTACTAG) (LTG core: CT, RTG core: CT)")
0.22

Query: Name the reported recombinant barcode read abundance (log10) value associated with the sequence GGGAGCCCTTGGGTTCTAACCTGTTGCTGCC [GGGAGCCCTCA_LTGcore_CT_RTGcore_GG] (site GGGAGCCCTCA) (LTG core: CT, RTG core: GG)
Result: 0.0726

Query: Name the reported recombinant barcode read abundance (log10) value associated with the sequence ACGGGACCTTGGGTTCTAACCTGTTGCAGTG [ACGGGACCTCT_LTGcore_CT_RTGcore_CA] (site ACGGGACCTCT) (LTG core: CT, RTG core: CA)
Result: 0.172

Query: Name the reported recombinant barcode read abundance (log10) value associated with the sequence AGGCGGTCGTGGGTTCTAACCTGTTGCTTAG [AGGCGGTCTAA_LTGcore_CG_RTGcore_CT] (site AGGCGGTCTAA) (LTG core: CG, RTG core: CT)
Result: 0.398

Query: Name the reported recombinant barcode read abundance (log10) value associated with the sequence GGCTCCCCGTGGGTTCTAACCTGTTGCGGCG [GGCTCCCCTCC_LTGcore_CG_RTGcore_CG] (site GGCTCCCCTCC) (LTG core: CG, RTG core: CG)
Result: 0.0989

Query: Name the reported recombinant barcode read abundance (log10) value associated with the sequence GCGCGACCTTGGGTTCTAACCTGTTGCTTCC [GCGCGACCTAA_LTGcore_CT_RTGcore_GG] (site GCGCGACCTAA) (LTG core: CT, RTG core: GG)
Result: 0.0108

====

// recombinant barcode read abundance (log10) lookup, one value per entry
METHOD_NOTES: recombinant barcode read abundance after kanamycin selection (control-corrected) (log10(CPM+1)); higher = more efficient recombination; sequences stand for … in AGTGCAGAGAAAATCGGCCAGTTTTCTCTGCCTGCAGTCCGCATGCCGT…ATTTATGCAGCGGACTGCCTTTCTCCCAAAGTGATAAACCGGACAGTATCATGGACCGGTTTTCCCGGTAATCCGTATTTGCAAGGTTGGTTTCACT; site = the 11-nt target

>>> meas_value("AAACACAGCTGGGTTCTAACCTGTTGCCTGC [AAACACACTAG_LTGcore_GC_RTGcore_GC] (site AAACACACTAG) (LTG core: GC, RTG core: GC)")
0.0607
>>> meas_value("AGGCCTCCCTGGGTTCTAACCTGTTGCCTAG [AGGCCTCCTAG_LTGcore_CC_RTGcore_CT] (site AGGCCTCCTAG) (LTG core: CC, RTG core: CT)")
0.293
>>> meas_value("AGGAGGTACTGGGTTCTAACCTGTTGCCTAG [AGGAGGTCTAG_LTGcore_AC_RTGcore_CT] (site AGGAGGTCTAG) (LTG core: AC, RTG core: CT)")
0.105

Query: Name the reported recombinant barcode read abundance (log10) value associated with the sequence ACGGGACCTTGGGTTCTAACCTGTTGCAGCG [ACGGGACCTCT_LTGcore_CT_RTGcore_CG] (site ACGGGACCTCT) (LTG core: CT, RTG core: CG)
Result: 0.0844

Query: Name the reported recombinant barcode read abundance (log10) value associated with the sequence GGCTCCCCTTGGGTTCTAACCTGTTGCGGCG [GGCTCCCCTCC_LTGcore_CT_RTGcore_CG] (site GGCTCCCCTCC) (LTG core: CT, RTG core: CG)
Result: 0.0875

====

METHOD_NOTES: recombinant barcode read abundance after kanamycin selection (control-corrected) (log10(CPM+1)); higher = more efficient recombination; sequences stand for … in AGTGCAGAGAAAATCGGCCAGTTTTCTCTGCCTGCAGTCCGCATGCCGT…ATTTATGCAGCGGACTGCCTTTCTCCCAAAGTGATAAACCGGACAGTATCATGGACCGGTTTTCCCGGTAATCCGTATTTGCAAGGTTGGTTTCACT; site = the 11-nt target
READOUT: recombinant barcode read abundance (log10)
Write no unit; give the number alone.

Query: Name the reported recombinant barcode read abundance (log10) value associated with the sequence GGTGCCCAGTGGGTTCTAACCTGTTGCCGAG [GGTGCCCCTCG_LTGcore_AG_RTGcore_CT] (site GGTGCCCCTCG) (LTG core: AG, RTG core: CT)
Result: 0.202

Query: Name the reported recombinant barcode read abundance (log10) value associated with the sequence GGTGCCCCATGGGTTCTAACCTGTTGCCGTG [GGTGCCCCTCG_LTGcore_CA_RTGcore_CA] (site GGTGCCCCTCG) (LTG core: CA, RTG core: CA)
Result: 0.0735

Query: Name the reported recombinant barcode read abundance (log10) value associated with the sequence CATATTAGTTGGGTTCTAACCTGTTGCCTAG [CATATTACTAG_LTGcore_GT_RTGcore_CT] (site CATATTACTAG) (LTG core: GT, RTG core: CT)
Result: 0.209

Query: Name the reported recombinant barcode read abundance (log10) value associated with the sequence CGGTCCCACTGGGTTCTAACCTGTTGCCAAG [CGGTCCCCTTG_LTGcore_AC_RTGcore_CT] (site CGGTCCCCTTG) (LTG core: AC, RTG core: CT)
Result: 0.0364

Query: Name the reported recombinant barcode read abundance (log10) value associated with the sequence AGGCCTCCTTGGGTTCTAACCTGTTGCCTTG [AGGCCTCCTAG_LTGcore_CT_RTGcore_CA] (site AGGCCTCCTAG) (LTG core: CT, RTG core: CA)
Result: 0.722

====

METHOD_NOTES: recombinant UMI read abundance after kanamycin selection (control-corrected) (log10(CPM+1)); higher = more efficient recombination; extreme values may be limits of the assay; sequences stand for … in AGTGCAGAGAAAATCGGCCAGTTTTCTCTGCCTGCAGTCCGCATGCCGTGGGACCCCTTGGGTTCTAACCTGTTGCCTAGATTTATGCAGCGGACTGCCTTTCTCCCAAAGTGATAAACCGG…AGGTTGGTTTCACT; site = the 11-nt donor
READOUT: recombinant UMI read abundance (log10)
Write no unit; give the number alone.

>>> meas_value("CTGCTACCATGGACCGGTTTTCCCGGTAATCCGTATTTGCA (site CTGCTACCTTG)")
0
>>> meas_value("CAGTCGTCATGGACCGGTTTTCCCGGTAATCCGTATTTGGG (site CAGTCGACTCC)")
0.00913
>>> meas_value("AACTCATCATGGACCGGTTTTCCCGGTAATCCGTATTTGAA (site AACTCATCTTT)")
1.19
>>> meas_value("AAGATGCCATGGACCGGTTTTCCCGGTAATCCGTATTTGTG (site AAGATGCCTCA)")
0.653
>>> meas_value("GCCTAGACATGGACCGGTTTTCCCGGTAATCCGTATTTGGG (site TCCTAGACTCC)")
0.0888

Query: Name the reported recombinant UMI read abundance (log10) value associated with the sequence AGCTCAGCATGGACCGGTTTTCCCGGTAATCCGTATTTGGC (site AGCTCAGCTGC)
Result: 2.19

Query: Name the reported recombinant UMI read abundance (log10) value associated with the sequence TATTTGGCATGGACCGGTTTTCCCGGTAATCCGTATTTGGG (site TATTTGGCTCG)
Result: 0.0185

Query: Name the reported recombinant UMI read abundance (log10) value associated with the sequence ATTGAAACATGGACCGGTTTTCCCGGTAATCCGTATTTGGT (site ATTGAAACTAC)
Result: 1.66

Query: Name the reported recombinant UMI read abundance (log10) value associated with the sequence CCCCACACATGGACCGGTTTTCCCGGTAATCCGTATTTGTC (site CCCCACACTTA)
Result: 0.335

Query: Name the reported recombinant UMI read abundance (log10) value associated with the sequence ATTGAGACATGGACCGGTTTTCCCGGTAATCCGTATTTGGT (site AATGAGACTAC)
Result: 0.233

Query: Name the reported recombinant UMI read abundance (log10) value associated with the sequence AGCCTTCCATGGACCGGTTTTCCCGGTAATCCGTATTTGAC (site AGCCTTGCTGT)
Result: 0

Query: Name the reported recombinant UMI read abundance (log10) value associated with the sequence GTTCATGCATGGACCGGTTTTCCCGGTAATCCGTATTTGGT (site GTACATGCTAC)
Result: 0.216

Query: Name the reported recombinant UMI read abundance (log10) value associated with the sequence GCCTTCTCATGGACCGGTTTTCCCGGTAATCCGTATTTGGG (site CCCTTCTCTCC)
Result: 0.0122

Query: Name the reported recombinant UMI read abundance (log10) value associated with the sequence AAACATACATGGACCGGTTTTCCCGGTAATCCGTATTTGTG (site AAACATACTCA)
Result: 1.38

Query: Name the reported recombinant UMI read abundance (log10) value associated with the sequence GAACGAACATGGACCGGTTTTCCCGGTAATCCGTATTTGGT (site GAACGAACTAC)
Result: 1.21

Query: Name the reported recombinant UMI read abundance (log10) value associated with the sequence ACTAGAACATGGACCGGTTTTCCCGGTAATCCGTATTTGTG (site ACTAGAACTCC)
Result: 0.0298

Query: Name the reported recombinant UMI read abundance (log10) value associated with the sequence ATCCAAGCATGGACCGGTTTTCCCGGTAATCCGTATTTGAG (site GTCCAAGCTCT)
Result: 0.00952

Query: Name the reported recombinant UMI read abundance (log10) value associated with the sequence CATTCGACATGGACCGGTTTTCCCGGTAATCCGTATTTGGG (site CAATCGACTCC)
Result: 0.0123
